Experiment: yeast display, Sf9 membrane polyspecificity reagent, FACS + sequencing; frameworks hold sequencing errors
measured quantity: polyreactivity (PSR sort gate)

>  <biosequence>
QVQLVESGGALVQAGGRLLLSCAASGRTFQGYVMGWYRQAPGKERELVAAISRGTSTYYADSVKGRFTISRDNAKNTVYLQMNSLKPEDTAGYYCAADGERRHYWGQGTQVTVSS

>  <experimental result>
low polyreactivity

$$$$
>  <biosequence>
QVQLVESGGGLVQAGGSLRLSCAASGSILDYYVMGCSRQSPGKERELVAAIRGGGSTYYADSVKGRFTISRDNAKNTVYLQMNSLKPEDTAVYYCAKDSQTARDFDYWGQGTQVTVSS

>  <experimental result>
low polyreactivity

$$$$
>  <biosequence>
QVQLVESGGGLVQAGGSLRLSCAASGYTFDINAMGWYRQAPGKERELVADISANDGSTSYADSVKGRFTISRDNAKNTVYLQMNSLKPEDTAVYYCAADYIWNPTWSVGYGDPGYDYCGQGTQVTVSS

>  <experimental result>
low polyreactivity

$$$$

// provenance: the nanobody polyreactivity screen of Harvey et al. (2022)
